TEST_SYSTEM: T1, histidine-labeled cynomolgus monkey 4-1BB protein (cynomolgus monkey)
T1 construct: also called Monkey 4-1BB protein antigen (histidine-labeled); cynomolgus monkey 4-1BB protein and his tag (Acrobiosystem, #41B-052H4)
TEST_METHOD_NOTES: BLI Octet RED96, AHC sensor, his-tagged antigen
READOUT_TYPE: koff (s⁻¹)
Response body: numeric value in s⁻¹, unit text excluded.

BINDER	UNITS_LABEL	koff
PR001760 (antibody, human IgG1, V domains shown, HCAb, heavy chain only, human IgG1 Fc; also called 1016P0011G10) VH: EVQLVESGGGVVQPGGSLRLSCAASGFTFSNYAMTWVRQAPEKGLEWVSSISGSGVSTYYADSVKGRFTISRDNSKNTLYLQMTRLTAEDTAVYFCAKEGSSETDDHYYNVDVWGQGTTVTVSS	s⁻¹	0.00321
PR001836 (antibody, human IgG1, V domains shown, HCAb, heavy chain only, human IgG1 Fc; also called 1016P0020G4) VH: EVQLLESGGGLVQPGGSLRLSCAASGFIFSNFAMTWVRQPPEKGLKWVSSINGSGFNTYYTDSVKGRFTISRDNSRNTLYLQMNRLTAEDTAVYFCAKEGSSETDDHYYNVDVWGQGTTVTVSS	s⁻¹	0.00147
PR001833 (antibody, human IgG1, V domains shown, HCAb, heavy chain only, human IgG1 Fc; also called 1016P0016F8) VH: EVQLLESGGGLVQPGGSLRLSCAASGFTFSSYAMSWVRQAPEKGLEWVSSISGSGGSTFYADSVKGRFTISRDNSKNTLYLQMNSLRAEDTAVYFCAKEGATETDDYHFNTDVWGQGTTVTVSS	s⁻¹	0.00309
PR001759 (antibody, human IgG1, V domains shown, HCAb, heavy chain only, human IgG1 Fc; also called 1016P0010D7) VH: EVQLLESGGGLVQPGGSLRLSCAASGFTFSSYAMSWFRQPPETGLQWVSSIGGSGGDTYYADSVKGRFTISRDNSKNTLYLQMNSLRAEDTAVYYCAKEGSNGTDDNYYDVDVWGQGTTVTVSS	s⁻¹	0.00237
PR001838 (antibody, human IgG1, V domains shown, HCAb, heavy chain only, human IgG1 Fc; also called 1016P0030B2) VH: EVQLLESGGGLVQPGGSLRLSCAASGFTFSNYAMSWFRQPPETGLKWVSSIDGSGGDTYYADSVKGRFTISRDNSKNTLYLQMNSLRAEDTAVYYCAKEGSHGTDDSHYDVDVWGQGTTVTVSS	s⁻¹	0.00146

Tell me the measured koff of PR001840 (antibody, human IgG1, V domains shown, HCAb, heavy chain only, human IgG1 Fc; also called 1016P0037D2) VH: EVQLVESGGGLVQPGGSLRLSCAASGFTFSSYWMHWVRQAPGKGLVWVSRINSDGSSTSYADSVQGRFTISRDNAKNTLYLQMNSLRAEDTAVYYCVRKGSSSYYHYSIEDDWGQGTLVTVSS , please.
0.00101

Tell me the measured koff of PR001830 (antibody, human IgG1, V domains shown, HCAb, heavy chain only, human IgG1 Fc; also called 1016P0014G8) VH: EVQLLESGGGLVQPGGSLRLSCTASGFTFSNYAMSWVRQAPEKGLEWVSSISGSGGSTFYADSVKGRFTISRDNSKNTLYLQMNSLRAEDTAVYFCAKEGSSETDDHYYNVDVWGQGTTVTVSS , please.
0.00347

Tell me the measured koff of PR001758 (antibody, human IgG1, V domains shown, HCAb, heavy chain only, human IgG1 Fc; also called 1016P0010B11) VH: EVQLLESGGGLVQLGGSLRLSCAASGFTFSRYAMTWVRQAPEKGLEWVSSISGSGDDTYYGDSVKGRFTISRDNSQNTVYLQMNSLRAEDTAVYFCAKEKAGTTGDYYYNVDVWGQGTTVTVSS , please.
0.00112
